- experiment_summary: Phase I/IIa clinical PK of oral psilocin-d10, plasma, noncompartmental analysis (Cohorts 1-6)
- Format: in vivo, human
- measurement_parameters: human, plasma, po, 3 mg, 3 mg oral, Cohort 2 NHV, Day 1; read-out: T1/2 Mean (SD) (converted)
measured_endpoint: half-life

Output half-life of "[2H]C([2H])([2H])N(C([2H])([2H])[2H])C([2H])([2H])C([2H])([2H])c1c[nH]c2cccc(O)c12"
286 min

---

- experiment_summary: 28-day (4-week GLP) toxicology study in dogs, toxicokinetic exposure
- measurement_parameters: both sexes, dog, in vivo; toxicokinetic data, 28-day toxicology study in dogs, combined male and female; read-out: predefined maximum exposure level, Cmax
measured_endpoint: Cmax (ng/mL)
I only need the number, in ng/mL, no unit after it.

Please look at this compound and report its Cmax: "[2H]C([2H])([2H])N(C([2H])([2H])[2H])C([2H])([2H])C([2H])([2H])c1c[nH]c2cccc(O)c12"
63

---

- experiment_summary: Phase I/IIa clinical PK of oral psilocin-d10, plasma, noncompartmental analysis (Cohorts 1-6)
- Assay type: in vivo, human
- measurement_parameters: human, plasma, po, 3 mg, 3 mg oral, Cohort 2 NHV, Day 1; read-out: Cmax Mean (SD)
measured_endpoint: Cmax (ng/mL)
Reply with just the number (in ng/mL).

Respond only with Cmax recorded for [2H]C([2H])([2H])N(C([2H])([2H])[2H])C([2H])([2H])C([2H])([2H])c1c[nH]c2cccc(O)c12 [psilocin-d10]
5.91

---

- experiment_summary: Phase I/IIa clinical PK of oral psilocin-d10, plasma, noncompartmental analysis (Cohorts 1-6)
- Type: in vivo, human
- measurement_parameters: human, plasma; 16 mg oral, Cohort 6 MDD, all subjects incl. 3 with emesis; read-out: Tmax Median
measured_endpoint: Tmax (h)
Answer format: numeric, h implied, no suffix.

Provide Tmax value for the following molecule: [2H]C([2H])([2H])N(C([2H])([2H])[2H])C([2H])([2H])C([2H])([2H])c1c[nH]c2cccc(O)c12 [psilocin-d10]
1.03

---

- experiment_summary: Phase I/IIa clinical PK of oral psilocin-d10, plasma, noncompartmental analysis (Cohorts 1-6)
- Assay type: in vivo, human
- measurement_parameters: human, plasma, po, 12 mg, 12 mg oral, Cohort 4 MDD, Day 1 and Day 22; read-out: Vz/F Mean (SD)
measured_endpoint: Vd/F

Please supply the value of reported Vd/F for the item [2H]C([2H])([2H])N(C([2H])([2H])[2H])C([2H])([2H])C([2H])([2H])c1c[nH]c2cccc(O)c12 [psilocin-d10]
668 L

---

- experiment_summary: Phase I/IIa clinical PK of oral psilocin-d10, plasma, noncompartmental analysis (Cohorts 1-6)
- Format: in vivo, human
- measurement_parameters: human, plasma, po, 12 mg, 12 mg oral, Cohorts 4 and 5 MDD, Day 1 and Day 22; read-out: Cmax Mean (SD)
measured_endpoint: Cmax (ng/mL)
Quick note: give the figure in ng/mL, leave out the unit.

Give Cmax for the following compound: [2H]C([2H])([2H])N(C([2H])([2H])[2H])C([2H])([2H])C([2H])([2H])c1c[nH]c2cccc(O)c12 [psilocin-d10]
18.2

---

- experiment_summary: Phase I/IIa clinical PK of oral psilocin-d10, plasma, noncompartmental analysis (Cohorts 1-6)
- Assay type: in vivo, human
- measurement_parameters: human, plasma, po, 12 mg, 12 mg oral, Cohorts 4 and 5 MDD, Day 1 and Day 22; read-out: AUClast Mean (SD)
- From the text: Phase I/IIa, Randomized, Double-Blind, Placebo-Controlled Study which assesses the safety, tolerability, pharmacokinetics, and pharmacodynamics of multiple ascending oral doses of psilocin-d10 in participants with and without MDD (ClinicalTrials.gov Identifier: NCT05385783). […]
measured_endpoint: AUC(0-t) (ng·h/mL)
Give the quantity in ng·h/mL, number only.

Tell me its AUC(0-t) given "[2H]C([2H])([2H])N(C([2H])([2H])[2H])C([2H])([2H])C([2H])([2H])c1c[nH]c2cccc(O)c12" as the entry.
145

---

- experiment_summary: Phase I/IIa clinical PK of oral psilocin-d10, plasma, noncompartmental analysis (Cohorts 1-6)
- Assay type: in vivo, human
- measurement_parameters: human, plasma, po, 1 mg, 1 mg oral, Cohort 1 MDD, Day 1 and Day 22 pooled; read-out: T1/2 Mean (SD) (converted)
measured_endpoint: half-life (h)
Report the figure in h without appending any unit label.

Note down half-life recorded for [2H]C([2H])([2H])N(C([2H])([2H])[2H])C([2H])([2H])C([2H])([2H])c1c[nH]c2cccc(O)c12 [psilocin-d10]
4.18

---

- experiment_summary: Phase I/IIa clinical PK of oral psilocin-d10, plasma, noncompartmental analysis (Cohorts 1-6)
- Format: in vivo, human
- measurement_parameters: human, plasma, po, 1 mg, 1 mg oral, Cohort 1 MDD, Day 1 and Day 22 pooled; read-out: Cmax Median
measured_endpoint: Cmax (ng/mL)
The reply should be a number in ng/mL, with the unit left off.

Indicate the recorded Cmax value for this compound: "[2H]C([2H])([2H])N(C([2H])([2H])[2H])C([2H])([2H])C([2H])([2H])c1c[nH]c2cccc(O)c12"
1.7

---

- experiment_summary: Phase I/IIa clinical PK of oral psilocin-d10, plasma, noncompartmental analysis (Cohorts 1-6)
- Type: in vivo, human
- measurement_parameters: human, plasma, po, 12 mg, 12 mg oral, Cohort 4 MDD, Day 1 and Day 22; read-out: Cmax Mean (SD)
measured_endpoint: Cmax (ng/mL)
// note: answer is a bare numeric in ng/mL

Supply recorded Cmax for "[2H]C([2H])([2H])N(C([2H])([2H])[2H])C([2H])([2H])C([2H])([2H])c1c[nH]c2cccc(O)c12" here.
19.7

---

- experiment_summary: Phase I/IIa clinical PK of oral psilocin-d10, plasma, noncompartmental analysis (Cohorts 1-6)
- Format: in vivo, human
- measurement_parameters: human, plasma, po, 16 mg, 16 mg oral, Cohort 6 MDD, all subjects incl. 3 with emesis; read-out: AUC0-inf Mean (SD)
measured_endpoint: AUC(0-inf) (ng·h/mL)
Please state the figure in ng·h/mL; there is no need to write the unit.

Give reported AUC(0-inf) value for "[2H]C([2H])([2H])N(C([2H])([2H])[2H])C([2H])([2H])C([2H])([2H])c1c[nH]c2cccc(O)c12"
161

---

- experiment_summary: Phase I/IIa clinical PK of oral psilocin-d10, plasma, noncompartmental analysis (Cohorts 1-6)
- Type: in vivo, human
- measurement_parameters: human, plasma, po, 8 mg, 8 mg oral, Cohorts 2 and 3 NHV, Day 1 and Day 8 pooled, 2 subjects excluded; read-out: Cmax Mean (SD)
measured_endpoint: Cmax (ng/mL)
Respond numerically; units are ng/mL and should not be typed.

Assign Cmax to the following record: [2H]C([2H])([2H])N(C([2H])([2H])[2H])C([2H])([2H])C([2H])([2H])c1c[nH]c2cccc(O)c12 [psilocin-d10]
15

---

- experiment_summary: Phase I/IIa clinical PK of oral psilocin-d10, plasma, noncompartmental analysis (Cohorts 1-6)
- Type: in vivo, human
- measurement_parameters: human, plasma, po, 10 mg, 10 mg oral, Cohort 3 NHV, Day 8; read-out: AUC0-24 Mean (SD)
measured_endpoint: AUC(0-t) (ng·h/mL)
Express it in ng·h/mL; write the number only.

Name the recorded AUC(0-t) of the item "[2H]C([2H])([2H])N(C([2H])([2H])[2H])C([2H])([2H])C([2H])([2H])c1c[nH]c2cccc(O)c12" in your answer.
101

---

- experiment_summary: Phase I/IIa clinical PK of oral psilocin-d10, plasma, noncompartmental analysis (Cohorts 1-6)
- Format: in vivo, human
- measurement_parameters: human, plasma, po, 12 mg, 12 mg oral, Cohort 4 MDD, Day 1 and Day 22; read-out: T1/2 Mean (SD) (converted)
measured_endpoint: half-life (h)
# unit: h | format: bare number

Note down half-life recorded for "[2H]C([2H])([2H])N(C([2H])([2H])[2H])C([2H])([2H])C([2H])([2H])c1c[nH]c2cccc(O)c12"
5.62

---

- experiment_summary: Phase I/IIa clinical PK of oral psilocin-d10, plasma, noncompartmental analysis (Cohorts 1-6)
- Format: in vivo, human
- measurement_parameters: human, plasma, po, 12 mg, 12 mg oral, Cohort 5 MDD, Day 1 and Day 22; read-out: Vz/F Mean (SD)
measured_endpoint: Vd/F (L)
# number only, unit L dropped from output

Supply recorded Vd/F for "[2H]C([2H])([2H])N(C([2H])([2H])[2H])C([2H])([2H])C([2H])([2H])c1c[nH]c2cccc(O)c12" here.
666

FYI, the data here is from patent US20240293367A1.
